# TGT: UniProt:Q9Y243
# Sequence (Q9Y243 whole entry, looked up): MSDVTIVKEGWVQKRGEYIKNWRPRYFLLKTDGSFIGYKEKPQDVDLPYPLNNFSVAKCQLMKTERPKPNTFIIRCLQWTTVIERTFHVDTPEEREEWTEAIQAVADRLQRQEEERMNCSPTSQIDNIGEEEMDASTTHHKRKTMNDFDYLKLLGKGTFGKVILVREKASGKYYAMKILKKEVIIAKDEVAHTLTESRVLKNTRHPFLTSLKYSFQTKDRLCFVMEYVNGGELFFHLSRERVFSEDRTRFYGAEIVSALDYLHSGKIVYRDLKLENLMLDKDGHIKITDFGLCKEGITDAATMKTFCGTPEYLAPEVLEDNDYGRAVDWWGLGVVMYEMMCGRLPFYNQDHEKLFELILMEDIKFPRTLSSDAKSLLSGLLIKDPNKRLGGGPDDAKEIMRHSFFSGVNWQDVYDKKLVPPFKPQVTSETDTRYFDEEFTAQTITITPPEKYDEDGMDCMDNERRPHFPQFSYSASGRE
# MEASUREMENT_PROTOCOL: Caliper, Mobility shift assay off-chip
# DETAILS: compound 0.1 µM
ASSAY_ENDPOINT: inhibition (%)

# count of solved cases: 3
Kindly state the measured inhibition obtained for O=c1c2cc(CS(=O)(=O)NCc3ccccn3)ccc2ccc2ncc(C3CCNCC3)cc12 with UniProt:Q9Y243.
5.2

Kindly state the measured inhibition obtained for Cn1cc(-c2cnc3ccc4ccc(CS(=O)(=O)CCc5ccccn5)cc4c(=O)c3c2)cn1 with UniProt:Q9Y243.
6.4

Kindly state the measured inhibition obtained for CN(c1ccc2ccc3ncc(-c4cnn(C)c4)cc3c(=O)c2c1)S(=O)(=O)NCc1ccccn1 with UniProt:Q9Y243.
6.2

P. O=C(CCc1ccc2ccc3ncc(C4CCNCC4)cc3c(=O)c2c1)NCc1ccccn1
Q. Cn1cc(-c2cnc3ccc4ccc(CS(=O)(=O)NC5CCCCC5)cc4c(=O)c3c2)cn1
R. Cn1cc(-c2cnc3ccc4ccc(CS(N)(=O)=O)cc4c(=O)c3c2)cn1
S. Cn1cc(-c2cnc3ccc4ccc(CS(=O)(=O)NCC5CCCCN5)cc4c(=O)c3c2)cn1 (configuration not stated)
Arrange the 4 entries by inhibition so the values rise. A complete answer lists every label in the requested sequence.
P, S, R, Q

---

# TGT: MAPK3 (human)
# MEASUREMENT_PROTOCOL: Caliper, Mobility shift assay off-chip
# DETAILS: compound 1.0 µM
ASSAY_ENDPOINT: inhibition (%)

Would you mind telling me what inhibition value was observed for Cn1cc(-c2cnc3ccc4ccc(CS(N)(=O)=O)cc4c(=O)c3c2)cn1 ?
3.6

A. CN(c1ccc2ccc3ncc(-c4cnn(C)c4)cc3c(=O)c2c1)S(=O)(=O)NCc1ccccn1
B. O=C(CCc1ccc2ccc3ncc(C4CCNCC4)cc3c(=O)c2c1)NCc1ccccn1
C. Cn1cc(-c2cnc3ccc4ccc(CS(=O)(=O)NCC5CCCCN5)cc4c(=O)c3c2)cn1 (stereo not given)
D. Cn1cc(-c2cnc3ccc4ccc(CS(=O)(=O)CCc5ccccn5)cc4c(=O)c3c2)cn1
Arrange the 4 entries by inhibition so the values rise. A complete answer lists every label in the requested sequence.
A, D, B, C
(A: -7.3%, D: -1.3%, B: -0.5%, C: 2.8%)

---

# TGT: DYRK1A (human)
# MEASUREMENT_PROTOCOL: Caliper, Mobility shift assay off-chip
# DETAILS: compound 1.0 µM
ASSAY_ENDPOINT: inhibition (%)

Kindly state the measured inhibition obtained for CN(c1ccc2ccc3ncc(-c4cnn(C)c4)cc3c(=O)c2c1)S(=O)(=O)NCc1ccccn1 with DYRK1A (human).
40.1

A. Cn1cc(-c2cnc3ccc4ccc(CS(=O)(=O)CCc5ccccn5)cc4c(=O)c3c2)cn1
B. Cn1cc(-c2cnc3ccc4ccc(CS(N)(=O)=O)cc4c(=O)c3c2)cn1
C. Cn1cc(-c2cnc3ccc4ccc(CS(=O)(=O)NCC5CCCCN5)cc4c(=O)c3c2)cn1 (stereo not given)
D. O=C(CCc1ccc2ccc3ncc(C4CCNCC4)cc3c(=O)c2c1)NCc1ccccn1
Arrange the 4 entries by inhibition so the values rise. A complete answer lists every label in the requested sequence.
D, A, C, B

---

# TGT: PAK2 (human)
# MEASUREMENT_PROTOCOL: Caliper, Mobility shift assay off-chip
# DETAILS: compound 0.1 µM
ASSAY_ENDPOINT: inhibition (%)

Would you mind telling me what inhibition value was observed for Cn1cc(-c2cnc3ccc4ccc(CS(N)(=O)=O)cc4c(=O)c3c2)cn1 ?
1.7

Would you mind telling me what inhibition value was observed for Cn1cc(-c2cnc3ccc4ccc(CS(=O)(=O)NC5CCCCC5)cc4c(=O)c3c2)cn1 ?
4.9

Would you mind telling me what inhibition value was observed for Cn1cc(-c2cnc3ccc4ccc(CS(=O)(=O)NCC5CCCCN5)cc4c(=O)c3c2)cn1 (configuration not stated) ?
-7.9

1. Cn1cc(-c2cnc3ccc4ccc(CS(=O)(=O)CCc5ccccn5)cc4c(=O)c3c2)cn1
2. CN(c1ccc2ccc3ncc(-c4cnn(C)c4)cc3c(=O)c2c1)S(=O)(=O)NCc1ccccn1
Task for the reader: decide whether 1 or 2 has the larger inhibition. Refer to your chosen entry by its label in the reply.
2
(2: 10.2%, 1: -38.4%)

A. O=c1c2cc(CS(=O)(=O)NCc3ccccn3)ccc2ccc2ncc(C3CCNCC3)cc12
B. O=C(CCc1ccc2ccc3ncc(C4CCNCC4)cc3c(=O)c2c1)NCc1ccccn1
For A and B , which recorded inhibition is lower? Refer to your chosen entry by its label in the reply.
B
